Test system: MCF-7 breast cancer cell line
assay.explanation: MTT cell viability assay, MCF-7
Format: cell-based, human
study.conditions: 72 hours exposure
// values below are reported pIC50
Scale explanation: pIC50 corresponds to minus log10 of a concentration expressed in moles per litre.

> print(dat)
                                   compound                   study.system  metric.name  number
1  N.N.[Cl][Pt][Cl] [Cisplatin, reference compound]  MCF-7 breast cancer cell line        pIC50    4.69

Would you kindly look at the next entry?
Please look up its pIC50: [Cu+2].[O-]c1ccccc1N=Cc1ccc(N2CCOCC2)cc1.[O-]c1ccccc1N=Cc1ccc(N2CCOCC2)cc1.c1ccc(-c2ccccn2)nc1 [(1a), [Cu(L)2(bpy)]]
4.49

====

Tested on: Escherichia coli
assay.explanation: Agar disc diffusion, strain A
Assay type: cell-based
Parameters: concentration or dose not given beside the values
study.conditions: (T–C)/T×100
metric.name: (inhibition %)
// units = %; emit number, no label

Worked cases, answers included:
molecule	unit.info	(inhibition %)
Oc1ccccc1N=Cc1ccc(N2CCOCC2)cc1	%	33
[H]/N=C(/N)N[C@H]1[C@H](O)[C@@H](O)[C@H](O[C@@H]2O[C@@H](C)[C@](O)(C=O)[C@H]2O[C@@H]2O[C@@H](CO)[C@H](O)[C@@H](O)[C@@H]2NC)[C@@H](N/C(N)=N\[H])[C@@H]1O [Streptomycin, reference compound]	%	75
[Cu+2].[O-]c1ccccc1N=Cc1ccc(N2CCOCC2)cc1.[O-]c1ccccc1N=Cc1ccc(N2CCOCC2)cc1.c1ccc(-c2ccccn2)nc1 [(1a), [Cu(L)2(bpy)]]	%	54
NCC[C@H](O)C(=O)N[C@@H]1C[C@H](N)[C@@H](O[C@H]2O[C@H](CN)[C@@H](O)[C@H](O)[C@H]2O)[C@H](O)[C@H]1O[C@H]1O[C@H](CO)[C@@H](O)[C@H](N)[C@H]1O [Amikacin, reference compound]	%	73

As a next step, examine the molecule that follows.
Sample [O-]c1ccccc1N=Cc1ccc(N2CCOCC2)cc1.[O-]c1ccccc1N=Cc1ccc(N2CCOCC2)cc1.[Zn+2].c1ccc(-c2ccccn2)nc1 [(2a), [Zn(L)2(bpy)]] — what was its (inhibition %)?
50

====

A collection of molecules and their measured % Inhibition superoxide
assay.explanation: Superoxide scavenging assay
Format: biochemical
study.conditions: 80 µM, 590 nm
Give me the value, and tack the unit on after it.

Worked cases, % Inhibition superoxide given:
> print(dat)
                                   molecule  result
1  [O-]c1ccccc1N=Cc1ccc(N2CCOCC2)cc1.[O-]c1ccccc1N=Cc1ccc(N2CCOCC2)cc1.[Zn+2].c1ccc(-c2ccccn2)nc1 [(2a), [Zn(L)2(bpy)]]  12.67%
2  O=C1O[C@H]([C@@H](O)CO)C(O)=C1O [Ascorbic acid, reference compound]  41.72%
3  [Cu+2].[O-]c1ccccc1N=Cc1ccc(N2CCOCC2)cc1.[O-]c1ccccc1N=Cc1ccc(N2CCOCC2)cc1.c1ccc(-c2ccccn2)nc1 [(1a), [Cu(L)2(bpy)]]  16.45%

Attention now shifts to the item below.
// % Inhibition superoxide lookup, key: Oc1ccccc1N=Cc1ccc(N2CCOCC2)cc1 [(HL), 2-(4-morpholinobenzylideneamino)phenol]
10.74%

====

assay.explanation: Hydroxyl radical scavenging assay
Format: biochemical
metric.name: pIC50
Kindly note that pIC50 refers to -log10 of the concentration in mol/L and answer with the value alone.

> print(dat)
                                   molecule  number
1  [Cu+2].[O-]c1ccccc1N=Cc1ccc(N2CCOCC2)cc1.[O-]c1ccccc1N=Cc1ccc(N2CCOCC2)cc1.c1ccc(-c2ccccn2)nc1 [(1a), [Cu(L)2(bpy)]]    3.70

Next molecule, please.
For O=C1O[C@H]([C@@H](O)CO)C(O)=C1O [Ascorbic acid, reference compound] , what is its reported pIC50?
3.80

====

assay.explanation: Nitric oxide scavenging assay
Format: biochemical
study.conditions: 40 µM, 546 nm
Readings of % Inhibition nitric oxide for the listed molecules
A number alone suffices; assume %.

Here's what some known entries look like.
> print(dat)
                                   molecule  unit.info  number
1  Oc1ccccc1N=Cc1ccc(N2CCOCC2)cc1 [(HL), 2-(4-morpholinobenzylideneamino)phenol]          %   11.42
2  [Cu+2].[O-]c1ccccc1N=Cc1ccc(N2CCOCC2)cc1.[O-]c1ccccc1N=Cc1ccc(N2CCOCC2)cc1.c1ccc(-c2ccccn2)nc1 [(1a), [Cu(L)2(bpy)]]          %   17.07
3  O=C1O[C@H]([C@@H](O)CO)C(O)=C1O [Ascorbic acid, reference compound]          %   28.55

Please examine the following record next.
So what's the measured % Inhibition nitric oxide for this one? [O-]c1ccccc1N=Cc1ccc(N2CCOCC2)cc1.[O-]c1ccccc1N=Cc1ccc(N2CCOCC2)cc1.[Zn+2].c1ccc(-c2ccccn2)nc1 [(2a), [Zn(L)2(bpy)]]
14.37
